Recorded values, source the MegaScale stability set (Tsuboyama et al. 2023).

B1: HHH_rd1_0493 (parent)
chain: RDEDEKEKIKEALKRGNEDKAKEIAKRANVSPEEYERLRKEAE

variants of: B1; test: folding stability dG (cDNA display proteolysis); higher = more stable; details: PBS, room temperature
Where folding stability dG equals or exceeds 3 kcal/mol, the correct label is yes; where it does not, the label is no.

Example results:
RDEDEKEKIKEALKRGNEDKAKECAKRANVSPEEYERLRKEAE no
RDEDEKEKIKEALKRGNEDKAKEIAKRANVSPEEYERLRLEAE yes
RDEDEKEKIKNALKRGNEDKAKEIAKRANVSPEEYERLRKEAE no
RDEDEKEKIKEALKRGNEDKAKEIAKRANVSPEEYERLRREAE yes
RDEDEKEKIKEALKRGNEDKAKEIAKRWNVSPEEYERLRKEAE no
RDEDEKEKIKMALKRGNEDKAKEIAKRANVSPEEYERLRKEAE no
RDEDEKEKIKEALKRGNEDKAKEIATRANVSPEEYERLRKEAE no
RDEDEKEKIKEALKRGNEDVAKEIAKRANVSPEEYERLRKEAE yes

input: Please tell me: is the variant RDEDEKEKIKEMLKRGNEDKAKEIAKRANVSPEEYERLRKEAE at or over 3 kcal/mol in terms of folding stability dG?
output: no

input: Follow-up entry: RDEDEKEKIKEALKRGNEDKAKEIAKRANVSPEEYEYLRKEAE
output: no

input: Same for RDEDMKEKIKEALKRGNEDKAKEIAKRANVSPEEYERLRKEAE
output: yes

input: Next entry: RDEDEKPKIKEALKRGNEDKAKEIAKRANVSPEEYERLRKEAE
output: no

input: Also need RDEDEKEKIKEALKRGNEDKAKEIAGRANVSPEEYERLRKEAE , thanks.
output: no
